The reported measurements were obtained from patent US8450494B2.

Target: glucokinase (GK) enzyme (Homo sapiens)
Experiment: In-vitro glucokinase (GK) enzyme activation assay (coupled with glucose-6-phosphate dehydrogenase, absorbance at 340)
Type: biochemical
Settings: compound 5 uM; glucose 2.5 mM, ATP 1 mM; read-out: % of GK activity wrt DMSO
Attribute measured: activity at 5 µM (%)

Worked examples, 6 compounds total:
- Compound: "COC[C@H](C)Oc1cc(Oc2ccc(-c3nnc(C)o3)cc2)cc(C(=O)Nc2nccs2)c1"
  Unit spec: "%"
  Recorded measurement: 271
- Compound: "CCOC(=O)c1cnc(NC(=O)c2cc(Oc3ccc(-c4nnc(C)o4)cc3)cc(OC(C)COC)c2)s1 (centres unmarked)"
  Unit spec: "%"
  Recorded measurement: 201
- Compound: "COCC(C)Oc1cc(Oc2ccc(-c3nnc(C)o3)cc2)cc(C(=O)Nc2ncc(Br)s2)c1 (centres unmarked)"
  Unit spec: "%"
  Recorded measurement: 316
- Compound: "Cc1nnc(-c2ccc(Oc3cc(OCC(C)C)cc(C(=O)Nc4nccs4)c3)cc2)o1"
  Unit spec: "%"
  Recorded measurement: 282
- Compound: "COCC(C)Oc1cc(Oc2ccc(-c3nnc(C)o3)cc2)cc(C(=O)Nc2nc(C)cs2)c1 (centres unmarked)"
  Unit spec: "%"
  Recorded measurement: 368
- Compound: "COCC(C)Oc1cc(Oc2ccc(-c3nnc(CC(C)C)o3)cc2)cc(C(=O)Nc2nccs2)c1 (centres unmarked)"
  Unit spec: "%"
  Recorded measurement: 436

[A] CCOC(=O)Cc1csc(NC(=O)c2cc(Oc3ccc(-c4nnc(C)o4)cc3)cc(OC(C)COC)c2)n1 (centres unmarked)
[B] C=CCCOc1cc(Oc2ccc(-c3nnc(C)o3)cc2)cc(C(=O)Nc2nccs2)c1
**Query** Which entry shows the lesser value of activity at 5 µM here, A or B ? Please respond with the label that marks your chosen entry.
**Result** B

====

Molecular target: glucokinase (GK) enzyme (Homo sapiens, UniProt P35557)
Experiment: In-vitro glucokinase (GK) enzyme activation assay (coupled with glucose-6-phosphate dehydrogenase, absorbance at 340)
Type: biochemical
Settings: compound 10 uM; glucose 2.5 mM, ATP 1 mM
Attribute measured: % of GK activity wrt DMSO (%)

Sample records with % of GK activity wrt DMSO:
- Molecule: "COCC(C)Oc1cc(Oc2ccc(-c3nnc(C)o3)cc2)cc(C(=O)Nc2nc(CC(=O)O)cs2)c1 (stereo not shown) [Example 2.8]"
  % of GK activity wrt DMSO, %: 328.9
- Molecule: "Cc1nnc(-c2ccc(Oc3cc(OCC4CCOCC4)cc(C(=O)Nc4nccs4)c3)cc2)o1 [Example 2.6]"
  % of GK activity wrt DMSO, %: 249.3

[P] COCC(C)Oc1cc(Oc2ccc(-c3nnc(C4CCCC4)o3)cc2)cc(C(=O)Nc2nccs2)c1 (stereo not shown) [Example 2.31]
[Q] Cc1nnc(-c2ccc(Oc3cc(OCC45CC6CC(CC(C6)C4)C5)cc(C(=O)Nc4nccs4)c3)cc2)o1 [Example 1.9]
**Query** Identify the item whose % of GK activity wrt DMSO is the smaller number: P or Q Refer to your chosen entry by its label in the reply.
**Result** Q

====

Biological target: UniProt P35557
Sequence (P35557 1-465): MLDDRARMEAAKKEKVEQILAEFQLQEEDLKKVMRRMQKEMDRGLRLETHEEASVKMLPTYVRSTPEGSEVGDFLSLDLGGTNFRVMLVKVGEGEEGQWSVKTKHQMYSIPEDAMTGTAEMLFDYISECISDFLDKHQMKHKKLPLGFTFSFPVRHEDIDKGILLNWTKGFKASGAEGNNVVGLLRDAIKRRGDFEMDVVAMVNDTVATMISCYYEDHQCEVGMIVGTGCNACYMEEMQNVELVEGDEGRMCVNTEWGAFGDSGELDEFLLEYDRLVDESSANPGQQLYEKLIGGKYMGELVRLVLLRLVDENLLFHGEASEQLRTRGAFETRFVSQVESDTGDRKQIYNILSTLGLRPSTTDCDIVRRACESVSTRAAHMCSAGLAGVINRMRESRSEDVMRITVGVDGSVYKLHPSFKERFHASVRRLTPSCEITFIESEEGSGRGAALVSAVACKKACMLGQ
Test: In-vitro glucokinase (GK) enzyme activation assay (coupled with glucose-6-phosphate dehydrogenase, absorbance at 340)
Format: biochemical
Settings: compound 10 uM; glucose 2.5 mM, ATP 1 mM; read-out: % of GK activity wrt DMSO
Attribute measured: activity at 10 µM (%)

Recorded activity at 10 µM, per entry:
- Molecule: "Cc1csc(NC(=O)c2cc(OCC3CCCCC3)cc(Oc3ccc(-c4nnc(C)o4)cc3)c2)n1"
  activity at 10 µM / %: 150
- Molecule: "Cc1nnc(-c2ccc(Oc3cc(OCC4CC4)cc(C(=O)Nc4nccs4)c3)cc2)o1"
  activity at 10 µM / %: 293
- Molecule: "COC[C@H](C)Oc1cc(Oc2ccc(-c3nnc(C)o3)cc2)cc(C(=O)Nc2nc(C)cs2)c1"
  activity at 10 µM / %: 408
- Molecule: "COCC(C)Oc1cc(Oc2ccc(-c3nnc(C4CC4)o3)cc2)cc(C(=O)Nc2nccs2)c1 (stereo not shown)"
  activity at 10 µM / %: 488
- Molecule: "Cc1nnc(-c2ccc(Oc3cc(OC(C)C4CC4)cc(C(=O)Nc4nccs4)c3)cc2)o1 (stereo not shown)"
  activity at 10 µM / %: 311

[I] CCc1nnc(-c2ccc(Oc3cc(OC(C)COC)cc(C(=O)Nc4nccs4)c3)cc2)o1 (stereo not shown)
[II] COC[C@@H](C)Oc1cc(Oc2ccc(-c3nnc(C)o3)cc2)cc(C(=O)Nc2nccs2)c1
**Query** Pick the one with the larger activity at 10 µM: I vs II Write down the label attached to your selection.
**Result** I
